- experimental details: pM = −log[M] calculated from protonation and stability constants
- Type: physicochemical
- protocol conditions: calculated from the constants with CL = 10 × CM = 10^−5 M at pH 7.4
result type: pY (pM = −log[M])
Field format: numeric only.

Dear colleague, please send me the reported pY (pM = −log[M]) for O=C(O)CN1CCN(Cc2cccc(C(=O)O)n2)CCN(CC(=O)O)Cc2cccc(n2)C1 [Ligand P04218] when you can.
16.9

* * *

- experimental details: pM = −log[M] calculated from protonation and stability constants
- Type: physicochemical
- protocol conditions: calculated from the constants with CL = 10 × CM = 10^−5 M at pH 7.4
result type: pY (pM = −log[M])
The answer should be a number; do not append a unit.

Illustrative cases are given below, each with its answer.
| compound | result type | reported measurement |
| --- | --- | --- |
| O=C(O)CN1CCN(Cc2cccc(C(=O)O)n2)Cc2cccc(n2)CN(Cc2cccc(C(=O)O)n2)CC1 | pY (pM = −log[M]) | 16.8 |
| CCCCOP(=O)(O)CN1CCN(CP(=O)(O)OCCCC)Cc2cccc(n2)CN(CP(=O)(O)OCCCC)CC1 [PCTMB, reference compound] | pY (pM = −log[M]) | 16.7 |
| O=C(O)CN1CCN(CC(=O)O)CCN(CC(=O)O)CCN(CC(=O)O)CC1 | pY (pM = −log[M]) | 18.8 |

Let us examine a further case.
Report measured pY (pM = −log[M]); entry is O=C(O)CN(CCN(CC(=O)O)CC(=O)O)CC(=O)O
16.6
